Data provenance is ChEMBL document CHEMBL1134397.

# test: Maximum plasma concentration was measured when a dose of 1 mg/kg is administered orally
# Assay type: ADME, organism-based
# Parameters: dose 1 mg/kg, route oral
# condition.description: rat, po
reported.property: Cmax

In [3]: df
Out[3]:
                                   compound     result
0  COC(=O)c1ccc2oc(C(=O)C(Cc3ccccc3)NC(=O)Cn3c(-c4cccc(OC)c4)ncc(N)c3=O)nc2c1 (stereo unspecified)  396 ng/mL

###

# test: Time to reach Cmax when a dose of 1 mg/kg is administered orally
# Assay type: ADME, organism-based
# Parameters: dose 1 mg/kg, route oral
# condition.description: rat, in vivo, po
reported.property: Tmax (h)

>>> print(df.to_string())
                                   compound  measured_number
0  COC(=O)c1ccc2oc(C(=O)C(Cc3ccccc3)NC(=O)Cn3c(-c4cccc(OC)c4)ncc(N)c3=O)nc2c1 (stereo unspecified)                6
